Origin of the recorded values: patent US4753953A

List of MIC values.
- Tested on: Salmonella enteritidis IID 604
- MEASUREMENT NOTES: MIC, in vitro antibacterial activity (standard strains)
- Type: cell-based
- TEST CONDITIONS: Salmonella enterica; 10^6 cells/ml; Gram -; read-out: MIC
All answers are understood in µg/mL, so give the number only.

>>> numeric_readout("CNCC1CN(c2c(F)cc3c(=O)c(C(=O)O)cn(C4CC4)c3c2Cl)CC1C (stereo not drawn) [Example 12]")
0.1
>>> numeric_readout("C[C@H]1CN(c2c(F)cc3c(=O)c(C(=O)O)cn(CCF)c3c2F)C[C@H]1N (relative stereo) [Example 25]")
0.1

Turning now to a further molecule:
q: Which value of MIC has been reported for CC1CN(c2c(F)cc3c(=O)c(C(=O)O)cn(C4CC4)c3c2F)CC1N.Cl (stereo not drawn) [Example 11] in the records?
a: 0.05
